assay.target: GDP-bound KRAS wild-type protein (Homo sapiens, UniProt P01116)
Sequence (P01116 whole entry): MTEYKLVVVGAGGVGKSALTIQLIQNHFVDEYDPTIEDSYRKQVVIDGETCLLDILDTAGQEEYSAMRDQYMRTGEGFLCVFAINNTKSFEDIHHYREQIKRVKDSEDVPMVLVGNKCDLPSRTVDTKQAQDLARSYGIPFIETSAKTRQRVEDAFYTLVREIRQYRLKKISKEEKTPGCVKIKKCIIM
assay.explanation: Binding to KRAS by surface plasmon resonance (SPR), Single Cycle Kinetics
assay.context: SPR Single Cycle Kinetics, GDP-bound KRAS wild-type protein, 1:1 binding model; read-out: KRAS KD
Where a SMILES comes first, the peptide text is derived from it. Bridges are numbered along the chain shown (N, C = ends). [ ]: non-standard residue; d: D form. The star is where a group is joined. hPhe(3-Cl-4-CF3) = N[C@@H](CCc1ccc(C(F)(F)F)c(Cl)c1)C(=O)O; NPrPhe(4-CF3) = CCCN[C@@H](Cc1ccc(C(F)(F)F)cc1)C(=O)O; NEtPhe(4-Me) = CCN[C@@H](Cc1ccc(C)cc1)C(=O)O; NMeGly(cPent) = CN[C@H](C(=O)O)C1CCCC1; Hyp = O=C(O)[C@@H]1C[C@@H](O)CN1; Piperidide(4-Me) = CC1CCN(*)CC1; NMeD = CN[C@@H](CC(=O)O)C(=O)O; NMeL = CN[C@@H](CC(C)C)C(=O)O; NMeV = CN[C@H](C(=O)O)C(C)C; Morpholide = C1CN(*)CCO1; NMeA = CN[C@@H](C)C(=O)O; Ac5c = NC1(C(=O)O)CCCC1; Aze = O=C(O)[C@@H]1CCN1; NEtG = CCNCC(=O)O; Sar = CNCC(=O)O
property.name: Kd (nM)
Answers are plain numbers, in nM.

Study these solved cases before continuing.
compound	property.name	result.number
CCCN1C(=O)CN(C)C(=O)CN(CC)C(=O)[C@H]([C@@H](C)CC)NC(=O)[C@H](CC(C)C)N(C)C(=O)C[C@@H](C(=O)N(C)C)N(C)C(=O)[C@H](C2CCCC2)N(C)C(=O)C2(CCCC2)NC(=O)[C@@H]2CCCN2C(=O)[C@H](CCc2ccc(C(F)(F)F)c(Cl)c2)NC(=O)CN(C)C(=O)[C@@H]1Cc1ccc(C(F)(F)F)cc1 [PP0423] ([NMeL]I[NEtG][Sar][NPrPhe(4-CF3)][Sar][hPhe(3-Cl-4-CF3)]P[Ac5c][NMeGly(cPent)][NMeD]-NMe2; lactam N-11)	Kd	0.18
CC[C@H](C)[C@@H]1NC(=O)[C@H](CC(C)C)N(C)C(=O)C[C@@H](C(=O)N2CCOCC2)N(C)C(=O)[C@H](C(C)C)N(C)C(=O)C2(CCCC2)NC(=O)[C@@H]2CCCN2C(=O)[C@H](CCc2ccc(C(F)(F)F)c(Cl)c2)NC(=O)CN(C)C(=O)[C@H](Cc2ccc(C)cc2)N(CC)C(=O)[C@@H]2CCN2C(=O)[C@H](C)N(C)C1=O [PP0015] ([NMeL]I[NMeA][Aze][NEtPhe(4-Me)][Sar][hPhe(3-Cl-4-CF3)]P[Ac5c][NMeV][NMeD]-Morpholide; lactam N-11)	Kd	2.7
CC[C@H](C)[C@@H]1NC(=O)[C@H](CC(C)C)N(C)C(=O)C[C@@H](C(=O)N2CCOCC2)N(C)C(=O)[C@H](C2CCCC2)N(C)C(=O)C2(CCCC2)NC(=O)[C@H](C)N(CC)C(=O)[C@H](CCc2cc(F)c(C(F)(F)F)c(F)c2)NC(=O)CN(C)C(=O)[C@H](Cc2ccc(C(F)(F)F)cc2)N2CCCC[C@@H](C2=O)N(C)C(=O)CN(C)C1=O	Kd	0.36
CCCN1C(=O)[C@@H]2CCN2C(=O)[C@H](C)N(C)C(=O)[C@H]([C@@H](C)CC)NC(=O)[C@H](CC(C)C)N(C)C(=O)C[C@@H](C(=O)N2CCC(C)CC2)N(C)C(=O)[C@H](C2CCCC2)N(C)C(=O)C2(CCCC2)NC(=O)[C@@H]2CCCN2C(=O)[C@H](CCc2ccc(C(F)(F)F)c(Cl)c2)NC(=O)CN(C)C(=O)[C@@H]1Cc1ccc(C(F)(F)F)cc1 [PP0185] ([NMeL]I[NMeA][Aze][NPrPhe(4-CF3)][Sar][hPhe(3-Cl-4-CF3)]P[Ac5c][NMeGly(cPent)][NMeD]-{Piperidide(4-Me)}; lactam N-11)	Kd	1.1
CCC[C@H]1C(=O)N[C@@H]([C@@H](C)CC)C(=O)N(C2CC2)CC(=O)N(C)[C@H]2C/C=C\CCN(C2=O)[C@@H](Cc2ccc(C)cc2)C(=O)N(C)CC(=O)N[C@@H](CCc2cc(F)c(C(F)(F)F)c(F)c2)C(=O)N2C[C@H](OCC)C[C@H]2C(=O)NC2(CC(C)(C)C2)C(=O)N(C)[C@@H](CC(C)(C)C)C(=O)N(C)[C@H](C(=O)N(C)C)CC(=O)N1C	Kd	0.33

For every listed record, write down its Kd.
1. CCO[C@@H]1C[C@H]2C(=O)NC3(CCC3)C(=O)N(C)[C@@H](C3CCCC3)C(=O)N(C)[C@H](C(=O)N(C)C)CC(=O)N(C)[C@@H](CC3CCCC3)C(=O)N[C@@H]([C@@H](C)CC)C(=O)N(C)CC(=O)N(C)[C@H]3C/C=C\CCN(C3=O)[C@@H](Cc3ccc(C)cc3)C(=O)N(C)CC(=O)N[C@@H](CCc3ccc(C4CC4)c(F)c3)C(=O)N2C1
2. CCCN1C(=O)CN(C)C(=O)CNC(=O)[C@H]([C@@H](C)CC)NC(=O)[C@H](CC(C)C)N(C)C(=O)C[C@@H](C(=O)N(C)C)NC(=O)[C@H](C2CCCC2)N(C)C(=O)C2(CCCC2)NC(=O)[C@@H]2C[C@@H](OCC)CN2C(=O)[C@H](CCc2ccc(C(F)(F)F)c(Cl)c2)NC(=O)CN(C)C(=O)[C@@H]1Cc1ccc(C(F)(F)F)cc1 [PP0365] ([NMeL]IG[Sar][NPrPhe(4-CF3)][Sar][hPhe(3-Cl-4-CF3)][Hyp](Et)[Ac5c][NMeGly(cPent)]D-NMe2; lactam N-11)
3. CC[C@H](C)[C@@H]1NC(=O)[C@H](CC(C)C)N(C)C(=O)C[C@@H](C(=O)N2CCOCC2)N(C)C(=O)[C@H](C2CCCC2)N(CC)C(=O)C2(CCCC2)NC(=O)[C@@H]2CCCN2C(=O)[C@H](CCc2cc(F)c(C(F)(F)F)c(F)c2)NC(=O)CN(C)C(=O)[C@H](Cc2ccc(C(F)(F)F)cc2)N2CCCC[C@@H](C2=O)N(C)C(=O)CN(C)C1=O

[0.87, 0.29, 0.67]

For every listed record, write down its Kd.
1. CC[C@H](C)[C@@H]1NC(=O)[C@H](C)N(C)C(=O)C[C@@H](C(=O)N2CCOCC2)N(C)C(=O)[C@H](C2CCCC2)N(C)C(=O)C2(CCC2)NC(=O)[C@@H]2CC(F)(F)CN2C(=O)[C@H](CCc2cc(F)c(C(F)(F)F)c(F)c2)NC(=O)CN(C)C(=O)[C@H](Cc2ccc(C(F)(F)F)cc2)N2CCCCC[C@@H](C2=O)N(C)C(=O)CN(C)C1=O
2. CCO[C@@H]1C[C@H]2C(=O)NC3(CC(C)(C)C3)C(=O)N(C)[C@@H](C(CC)CC)C(=O)N(C)[C@H](C(=O)N3CCCCC3)CC(=O)N(C)[C@@H](COC)C(=O)N[C@@H]([C@@H](C)CC)C(=O)N(C)CC(=O)N(C)[C@H]3C/C=C\CCN(C3=O)[C@@H](Cc3ccc(C(F)(F)F)cc3)C(=O)N(C)CC(=O)N[C@@H](CCc3ccc(Cl)c(Cl)c3)C(=O)N2C1

1. 0.93
2. 1.3
